System tested: human 5-HT1A receptor (Homo sapiens, UniProt P08908)
Construct: expressed in transfected cells
Sequence (P08908 1-422): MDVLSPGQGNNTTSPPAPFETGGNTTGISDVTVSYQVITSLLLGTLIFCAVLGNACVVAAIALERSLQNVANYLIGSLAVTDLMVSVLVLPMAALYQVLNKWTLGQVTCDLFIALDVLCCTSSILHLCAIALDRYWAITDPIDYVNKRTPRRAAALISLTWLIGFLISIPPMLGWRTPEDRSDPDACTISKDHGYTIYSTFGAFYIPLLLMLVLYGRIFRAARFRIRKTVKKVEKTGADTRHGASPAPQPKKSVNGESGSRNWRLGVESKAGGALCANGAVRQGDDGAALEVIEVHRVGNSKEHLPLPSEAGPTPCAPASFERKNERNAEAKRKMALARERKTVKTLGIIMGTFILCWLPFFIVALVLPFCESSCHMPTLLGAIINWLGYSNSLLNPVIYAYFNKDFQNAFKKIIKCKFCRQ
Assay method text: GPCR radioligand binding assay, [3H]-8-OH-DPAT displacement, HEK293 membranes
Particulars: 5-HT1A; average of exp_1 and exp_2
# %inh 5-HT1A average per record follows
Readout name: %inh 5-HT1A average (%)

INSERT INTO measurements (compound, readout_units, recorded_measurement) VALUES
  ('N#Cc1ccc2ncsc2c1 [C12]', '%', 5.41),
  ('O=C(NC1CC1)c1ccccc1O [G4]', '%', 1.71),
  ('O=C1CCN(c2ccncc2)CC1 [G7]', '%', 0.831),
  ('O=C1CNCCN1c1ccccc1 [B2]', '%', 4.62),
  ('O=C1NC2(CCCC2)Nc2ccccc21 [C9]', '%', -0.0168),
  ('CCc1nccn1CC(=O)O [G11]', '%', 8.43),
  ('c1ccc2c(N3CCNCC3)ccnc2c1 [C4]', '%', 81),
  ('NC(c1ccccc1)c1ccccc1 [C3]', '%', -12),
  ('O=C1CSC(Nc2ccc(F)cc2)=N1 [H10]', '%', 12),
  ('CCN(CC)c1cccc(C)c1 [E4]', '%', 8.49),
  ('Fc1ccc2c(C3CCNCC3)c[nH]c2c1 [H4]', '%', 81);
